- Target entity: T1, recombinant mouse Ang2-FLD (mouse, UniProt O35608 275-496, limits assumed)
- T1 construct: domain: FLD
- T1 sequence (looked up): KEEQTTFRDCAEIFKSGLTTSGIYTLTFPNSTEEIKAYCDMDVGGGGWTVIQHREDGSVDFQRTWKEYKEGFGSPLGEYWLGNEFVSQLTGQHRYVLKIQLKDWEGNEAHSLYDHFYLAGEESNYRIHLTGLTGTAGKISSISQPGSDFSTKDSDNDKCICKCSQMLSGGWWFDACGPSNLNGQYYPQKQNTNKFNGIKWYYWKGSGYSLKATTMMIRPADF
- Experimental details: SPR (Biacore T100), binder on CM5 chip, Ang2-FLD as analyte
- Description: In brief, VHH and benchmark compounds are immobilized on a CM5 chip via amine coupling. […] Ang2-FLD species are allowed to associate for 2 min and to dissociate for 20 min at a flow rate of 45 μL/min. […] Association/dissociation data are evaluated by fitting a 1:1 interaction model (Langmuir binding). The affinity constant KD is calculated from resulting association and dissociation rate constants kₐ and kd and are depicted in Table 8.
Measure name: koff
Record the result as a number with its unit.

Supply reported koff belonging to this binder: VHH 11B07 (VHH, also called 011B07; not shown: C-terminal c-myc tag and His6 tag) VHH: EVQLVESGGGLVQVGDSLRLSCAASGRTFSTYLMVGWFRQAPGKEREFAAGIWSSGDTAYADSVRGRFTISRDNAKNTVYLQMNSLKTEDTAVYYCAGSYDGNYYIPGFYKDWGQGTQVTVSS
0.14 s⁻¹

Turning now to a further record.
Supply reported koff belonging to this binder: VHH 28D10 (VHH, also called 028D10; not shown: C-terminal c-myc tag and His6 tag) VHH: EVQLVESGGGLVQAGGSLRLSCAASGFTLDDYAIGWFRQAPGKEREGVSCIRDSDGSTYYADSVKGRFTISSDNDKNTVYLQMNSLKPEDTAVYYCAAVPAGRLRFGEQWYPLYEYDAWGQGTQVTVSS
0.011 s⁻¹

The reported numbers originate from patent US20230203146A1.
